# TESTED_TARGET: Aβ42 (Homo sapiens)
# ASSAY_PROTOCOL: Th-T (thioflavin-T) assay of Aβ42 aggregation
# Format: biochemical
# EXPERIMENTAL_PARAMETERS: head suffix _50 (concentration 50); reading M68
ENDPOINT_LABEL: Th-T fluorescence of Aβ42 (sheet Fig. 7a), mean of three wells
Form: value (number only, do not type unit).

C=C1CC[C@@H]2[C@](C)(CC[C@H]3O[C@H](C=C(C)C)C[C@@]23C)[C@@H]1Cc1c(OC)oc(CO)c(C(=O)OC)c1=O = 0.2485
C=C1CCC2C(C)(CCC=C(C)C)C(O)CCC2(C)C1Cc1c(OC)oc(C)c(C(=O)OC)c1=O (centres unmarked) = 3.307
C=C1CC[C@@H]2[C@](C)(CC[C@H]3O[C@H](C=C(C)C)C[C@@]23C)[C@@H]1Cc1c(OC)oc(CO)c(C)c1=O = 2.106
C=C1CCC2C(C)(CCC=C(C)C)C(O)CCC2(C)C1Cc1c(OC)oc(CO)c(C(=O)OC)c1=O (centres unmarked) = 0.4706

Query compound follows.
Query: If you can, please state the reported Th-T fluorescence of Aβ42 (sheet Fig. 7a), mean of three wells value of C=C1CCC2C(C)(CCC=C(C)C)C(O)CCC2(C)C1Cc1c(OC)oc(CO)c(C)c1=O (centres unmarked) .
Response: 1.453

* * *

# TESTED_TARGET: UniProt:P05067
# ASSAY_PROTOCOL: Th-T (thioflavin-T) assay of Aβ42 aggregation
# Format: biochemical
# EXPERIMENTAL_PARAMETERS: compound at 50; reading M60 of time course
Reported Th-T fluorescence, mean of three wells by item:
Write the number on its own, no unit after it.

Answered cases to consult:
C=C1CC[C@@H]2[C@](C)(CC[C@H]3O[C@H](C=C(C)C)C[C@@]23C)[C@@H]1Cc1c(OC)oc(CO)c(C)c1=O [Compound 20] = 2.089
C=C1CC[C@@H]2[C@](C)(CC[C@H]3O[C@H](C=C(C)C)C[C@@]23C)[C@@H]1Cc1c(OC)oc(CO)c(C(=O)OC)c1=O [Compound 21] = 0.2276
C=C1CCC2C(C)(CCC=C(C)C)C(O)CCC2(C)C1Cc1c(OC)oc(CO)c(C)c1=O (centres unmarked) [Compound 12] = 1.444
C=C1CCC2C(C)(CCC=C(C)C)C(O)CCC2(C)C1Cc1c(OC)oc(C)c(C(=O)OC)c1=O (centres unmarked) [Compound 14] = 4.2063

Query: Which Th-T fluorescence, mean of three wells is reported with UniProt:P05067 for this entry: C=C1CCC2C(C)(CCC=C(C)C)C(O)CCC2(C)C1Cc1c(OC)oc(CO)c(C(=O)OC)c1=O (centres unmarked) [Compound 13] ?
Response: 0.4689

* * *

# TESTED_TARGET: Aβ42 (Homo sapiens, UniProt P05067)
# Sequence (P05067 672-713): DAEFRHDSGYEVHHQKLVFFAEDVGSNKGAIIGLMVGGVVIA
# ASSAY_PROTOCOL: Th-T (thioflavin-T) assay of Aβ42 aggregation
# Assay type: biochemical
# EXPERIMENTAL_PARAMETERS: measurement M12; source data, Ab alone and No Ab as controls
This listing pairs molecules with measured Th-T assay plate reading, mean of three wells (Supplementary Fig. 47).
Please give only the number in your answer, with no unit.

Consider the following illustrative entries.
C=C1CCC2C(C)(CCC=C(C)C)C(O)CCC2(C)C1Cc1c(OC)oc(C)c(C(=O)OC)c1=O (stereo not shown) = 0.4563
C=C1CCC2C(C)(CCC=C(C)C)C(O)CCC2(C)C1Cc1c(OC)oc(CO)c(C)c1=O (stereo not shown) = 2.311
C=C1CCC2C(C)(CCC=C(C)C)C(O)CCC2(C)C1Cc1c(OC)oc(C)c(C)c1=O (stereo not shown) [Compound 11] = 0.8108

Query: Param item = C=C1CCC2C(C)(CC(=O)C=C(C)C)C(O)CCC2(C)C1Cc1c(OC)oc(CO)c(C)c1=O (stereo not shown) ; retrieve measured Th-T assay plate reading, mean of three wells (Supplementary Fig. 47).
Response: 0.7862

* * *

# TESTED_TARGET: Aβ42 (Homo sapiens, UniProt P05067)
# ASSAY_PROTOCOL: Th-T (thioflavin-T) assay of Aβ42 aggregation
# Assay type: biochemical
# EXPERIMENTAL_PARAMETERS: column suffix _20; measurement M24
Please respond with 1 when measured Th-T fluorescence, mean of three wells (Fig. 7a) is strictly beneath 0.2, and with 0 in all other cases.

Answered examples (3):
C=C1CC[C@@H]2[C@](C)(CC[C@H]3O[C@H](C=C(C)C)C[C@@]23C)[C@@H]1Cc1c(OC)oc(CO)c(C)c1=O = 0
C=C1CCC2C(C)(CCC=C(C)C)C(O)CCC2(C)C1Cc1c(OC)oc(CO)c(C(=O)OC)c1=O (centres unmarked) = 1
C=C1CCC2C(C)(CCC=C(C)C)C(O)CCC2(C)C1Cc1c(OC)oc(CO)c(C)c1=O (centres unmarked) = 0

Query: Is Th-T fluorescence, mean of three wells (Fig. 7a) strictly under 0.2 for the entry C=C1CCC2C(C)(CCC=C(C)C)C(O)CCC2(C)C1Cc1c(OC)oc(C)c(C(=O)OC)c1=O (centres unmarked) ?
Response: 0

* * *

# TESTED_TARGET: UniProtKB P05067
# ASSAY_PROTOCOL: Th-T (thioflavin-T) assay of Aβ42 aggregation
# Type: biochemical
# EXPERIMENTAL_PARAMETERS: Supplementary Fig. 47 source data; measurement M44 of time course
Th-T fluorescence, mean of three wells by entry:
Give the value as a plain number.

Query: # returns recorded Th-T fluorescence, mean of three wells (system: UniProtKB P05067) for C=C1CC[C@H]2[C@]3(C)C[C@H](C=C(C)C)O[C@H]3CC[C@]2(C)[C@@H]1Cc1c(OC)oc(C)c(C)c1=O
Response: 4.12

Query: And the next one, C=C1CCC2C(C)(CC(=O)C=C(C)C)C(O)CCC2(C)C1Cc1c(OC)oc(C)c(C)c1=O (stereo not drawn) ?
Response: 3.759

* * *

This section presents molecules with their documented Th-T fluorescence, mean of three wells (Fig. 7a) values.
# TESTED_TARGET: Aβ42 (Homo sapiens, UniProt P05067)
# ASSAY_PROTOCOL: Th-T (thioflavin-T) assay of Aβ42 aggregation
# Type: biochemical
# EXPERIMENTAL_PARAMETERS: column suffix _10; measurement M29
API note: the answer field is a bare number with no unit suffix.

C=C1CC[C@@H]2[C@](C)(CC[C@H]3O[C@H](C=C(C)C)C[C@@]23C)[C@@H]1Cc1c(OC)oc(CO)c(C(=O)OC)c1=O = 0.2373
C=C1CCC2C(C)(CCC=C(C)C)C(O)CCC2(C)C1Cc1c(OC)oc(CO)c(C(=O)OC)c1=O (centres unmarked) = 0.4093
C=C1CCC2C(C)(CCC=C(C)C)C(O)CCC2(C)C1Cc1c(OC)oc(CO)c(C)c1=O (centres unmarked) = 2.853
C=C1CCC2C(C)(CCC=C(C)C)C(O)CCC2(C)C1Cc1c(OC)oc(C)c(C(=O)OC)c1=O (centres unmarked) = 2.338

Okay, now this molecule:
Query: I have this molecule here, C=C1CC[C@@H]2[C@](C)(CC[C@H]3O[C@H](C=C(C)C)C[C@@]23C)[C@@H]1Cc1c(OC)oc(CO)c(C)c1=O , and I need its recorded Th-T fluorescence, mean of three wells (Fig. 7a).
Response: 3.45

* * *

The entries below are paired with their reported Th-T fluorescence, mean of three wells (Fig. 7a).
# TESTED_TARGET: Aβ42 (Homo sapiens)
# ASSAY_PROTOCOL: Th-T (thioflavin-T) assay of Aβ42 aggregation
# Format: biochemical
# EXPERIMENTAL_PARAMETERS: reading M123; compound at 20 (head suffix _20)

Example entries begin here.
C=C1CCC2C(C)(CCC=C(C)C)C(O)CCC2(C)C1Cc1c(OC)oc(C)c(C(=O)OC)c1=O (centres unmarked) = 1.589
C=C1CCC2C(C)(CCC=C(C)C)C(O)CCC2(C)C1Cc1c(OC)oc(CO)c(C)c1=O (centres unmarked) = 2.112
C=C1CC[C@@H]2[C@](C)(CC[C@H]3O[C@H](C=C(C)C)C[C@@]23C)[C@@H]1Cc1c(OC)oc(CO)c(C(=O)OC)c1=O = 0.9514
C=C1CC[C@@H]2[C@](C)(CC[C@H]3O[C@H](C=C(C)C)C[C@@]23C)[C@@H]1Cc1c(OC)oc(CO)c(C)c1=O = 3.156

Consider now this further compound.
Query: If you can, please state the reported Th-T fluorescence, mean of three wells (Fig. 7a) value of C=C1CCC2C(C)(CCC=C(C)C)C(O)CCC2(C)C1Cc1c(OC)oc(CO)c(C(=O)OC)c1=O (centres unmarked) .
Response: 1.032

Hey, just so you know, these numbers are from paper PMC7156458.
